# testedOn: human ILT4 expressed on cells (human, UniProt Q8N423 22-597)
# Sequence (Q8N423 22-597): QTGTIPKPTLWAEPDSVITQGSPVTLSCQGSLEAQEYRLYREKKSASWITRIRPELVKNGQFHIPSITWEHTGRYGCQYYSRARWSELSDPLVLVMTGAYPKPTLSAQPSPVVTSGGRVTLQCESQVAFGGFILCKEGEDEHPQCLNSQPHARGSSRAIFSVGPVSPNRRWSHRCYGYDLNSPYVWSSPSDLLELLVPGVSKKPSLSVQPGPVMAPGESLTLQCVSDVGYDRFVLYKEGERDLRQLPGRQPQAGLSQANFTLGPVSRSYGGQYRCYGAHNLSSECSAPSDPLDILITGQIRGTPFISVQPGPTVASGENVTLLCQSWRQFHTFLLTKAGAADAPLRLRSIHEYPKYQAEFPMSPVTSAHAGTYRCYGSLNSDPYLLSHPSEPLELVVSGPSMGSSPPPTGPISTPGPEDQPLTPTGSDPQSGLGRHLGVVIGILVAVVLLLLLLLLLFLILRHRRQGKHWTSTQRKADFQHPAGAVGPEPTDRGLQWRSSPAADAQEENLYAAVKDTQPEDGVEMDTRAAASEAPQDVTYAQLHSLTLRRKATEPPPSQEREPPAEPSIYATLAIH
# assayName: cell-based or functional assay
IL-6 secretion by LPS-stimulated M2 macrophages (MSD), fold over control values, listed per item

These recorded examples may help you get a feel for the data.
L156S3 (antibody, IgG2a, V domains shown, also called mouse anti-human ILT4 antibody L156S3) VH: QVQLKQSGAELVRPGASVKLSCRASGYTFTDYYMNWVKQRPGQGLEWIARIYPGVYRTHYNEKFKDKATLTAEKSSSTAYMELSSLTSEDSAVYFCARSGYYGGTYEEDAMDYWGQGTSVTVSS VL: DIQMTQSPASLSVSVGETVTITCRASENIYSNLAWYQQKQGKSPQLLVYAATSLADGVPSRFRGSGSGTQYSLKISSLQSEDFGNYYCQNFWDTPYTFGGGTKLEIK | 2 fold
L77S2 (antibody, IgG1, V domains shown, also called Murine 77; mouse anti-human ILT4 antibody L77S2) VH: DVQLQQSGPELVKPGNSVKISCKAAGYSFTGYSVNWVKERHGKSLEWIGRINPYNGDIFNNQKFKGKATLTVDKSSSTAHMELRSLTSEDSAVYYCARGTTVGGAWFAYWGQGTLVTVSA VL: VIVLTQSPASLAVSLGQRAAISCRASESVDSYGYSFLHWYQQKPGQPPKLLIYLASNLESGIPARFSGSGSGTDFTLTINPVEADDVATYYCQQSNEDLMYTFGGGTKLEIK | 2 fold
L45S4 (antibody, IgG2a, V domains shown, also called Murine 45; mouse anti-human ILT4 antibody L45S4) VH: EVQLQQSGPELVKPGASVKISCKASGYTFTDYYMNWVKQSHGKSLEWIGDINPNNGGTSYNQKFKGKATLTVDKSSSTAYMELRSLTSEDSAVYYCARGGAELTGTYWYFDVWGTGTTVTVSS VL: DIQMTQSPASLSISVGETVTITCRASENIYSNLAWYQQKQGKSPQVLVYGATNLADGVPSRFSGSGSGTQYSLKIKSLQSEDFGSYYCQHFWDSPFTFGSGTKLEIK | 2 fold

Write down IL-6 secretion by LPS-stimulated M2 macrophages (MSD), fold over control measured for item L180S4 (antibody, IgG1, V domains shown, also called Murine 180; mouse anti-human ILT4 antibody L180S4) VH: EVHLQQSGPELVKPGASVKISCKASGYSFIGYFMNWMKQSHGKSLEWIGRINPYNGDIFYNQKFKGKATLTVDKSSTTAHMDLLSLTSEDFAVYYCARGITVAAGSFDVWGTGTTVTVSS VL: DIVLTQSPASLAVSLGQRATISCRASESVDNYGNTFMHWYQQKPGQPPKLLIYRASNLESGIPARFSGSGSKTDFTLTINPVEADDVATYYCQQSSDHPLTFGAGTKLELS 2 fold

These measurements were taken from patent US20260167714A1.
